assay text: physchem
Listed here: items and their measured pKa.

compound: O=C(O)CCC(=O)O
pKa: 4.9

compound: O=C(O)/C=C\C(=O)O
pKa: 4.07

compound: O=C(O)CC(O)C(=O)O (centres unmarked)
pKa: 4.22

compound: O=C(O)CCCC(=O)O
pKa: 4.78

compound: O=C(O)CCCCC(=O)O
pKa: 4.91
